# Test system: HCT-116
# experimental details: Cytotoxicity against human HCT116 cells after 48 hrs by sulforhodamine B assay
# Type: functional, cell-based
# run parameters: HCT-116, 48 h
property measured: IC50
Dear colleague, please send the value followed by its unit.

>>> meas_value("O=[N+]([O-])c1ccc(-c2nnc3sc(Nc4ccc(F)cc4)nn23)o1")
"8.91 µg/mL"
>>> meas_value("O=[N+]([O-])c1ccc(-c2nnc3sc(Nc4ccccc4)nn23)o1")
"4.38 µg/mL"
>>> meas_value("CCc1ccc(Nc2nn3c(-c4ccc([N+](=O)[O-])o4)nnc3s2)cc1")
"6.65 µg/mL"

Task: Need IC50, item `COc1cccc2c1C(=O)c1c(O)c3c(c(O)c1C2=O)C[C@@](O)(C(=O)CO)C[C@@H]3O[C@H]1C[C@H](N)[C@H](O)[C@H](C)O1`
Output: 3.73 µg/mL

Values were extracted from ChEMBL document CHEMBL1806362.
